- Target of assay: T1, EsCas13d, nuclease-dead (Eubacterium siraeum, UniProt B0MS50, R295A;H300A;R849A;H854A)
- T1 sequence: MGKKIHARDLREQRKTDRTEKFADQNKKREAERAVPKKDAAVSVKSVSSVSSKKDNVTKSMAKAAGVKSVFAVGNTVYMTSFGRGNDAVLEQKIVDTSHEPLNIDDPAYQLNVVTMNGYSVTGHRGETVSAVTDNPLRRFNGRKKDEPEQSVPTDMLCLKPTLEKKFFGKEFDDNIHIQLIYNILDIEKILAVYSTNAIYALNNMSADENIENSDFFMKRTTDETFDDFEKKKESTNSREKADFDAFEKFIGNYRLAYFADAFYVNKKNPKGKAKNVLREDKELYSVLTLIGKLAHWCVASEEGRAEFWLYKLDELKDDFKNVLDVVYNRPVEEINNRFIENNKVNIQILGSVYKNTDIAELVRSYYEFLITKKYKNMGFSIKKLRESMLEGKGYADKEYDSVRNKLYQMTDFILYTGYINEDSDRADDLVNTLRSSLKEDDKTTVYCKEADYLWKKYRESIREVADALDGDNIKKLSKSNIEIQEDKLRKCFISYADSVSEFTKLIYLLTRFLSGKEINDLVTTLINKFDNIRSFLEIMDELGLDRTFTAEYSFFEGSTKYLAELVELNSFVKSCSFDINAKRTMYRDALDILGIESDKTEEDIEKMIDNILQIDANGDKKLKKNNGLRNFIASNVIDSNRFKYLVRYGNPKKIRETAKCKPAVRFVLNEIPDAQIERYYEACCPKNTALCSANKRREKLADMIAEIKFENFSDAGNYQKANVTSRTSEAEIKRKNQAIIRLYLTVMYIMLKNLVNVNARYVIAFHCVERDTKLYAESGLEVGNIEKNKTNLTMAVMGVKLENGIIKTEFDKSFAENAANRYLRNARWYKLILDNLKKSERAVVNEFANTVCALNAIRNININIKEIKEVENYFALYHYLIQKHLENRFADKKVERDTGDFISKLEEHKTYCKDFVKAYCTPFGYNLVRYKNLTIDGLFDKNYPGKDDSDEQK
- Run description: crRNA (strand 1, pre-loaded); Mg2+; 40 mM Tris-HCl pH 7.5, 150 mM NaCl, 6 mM MgCl2, 1 mM DTT, 0.1% Tween-20, 0.2 mg/ml BSA; 25 C; 10 min per concentration, then washed
- Condition info: tags: His6-TwinStrep-SUMO cleaved; N-terminal SNAP kept (SNAP-Surface 488); label: 3' end held by stalled T7 RNA polymerase
I'd be grateful if you could share measured Kd for these entries.
Answers are plain numbers, in nM.

Binder	Kd, nM
target 3 insC 3' of 15,insC 3' of 11 (mixed) RNA 1: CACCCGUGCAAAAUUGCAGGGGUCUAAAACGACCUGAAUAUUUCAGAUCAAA RNA 2: GGGAAUGGAUCCACAUCUACGAAUUCGUUUUUGAUCUCGAAACUAUUCAGGUCUGCAGAUCGGAAGAGCACACGU	46
target 2 MT 5'PFS GUU 3'PFS AGA (mixed) RNA 1: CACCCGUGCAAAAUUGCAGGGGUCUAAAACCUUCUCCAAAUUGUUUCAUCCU RNA 2: GGGAAUGGAUCCACAUCUACGAAUUCGUUAGGAUGAAACAAUUUGGAGAAGAGAAGAUCGGAAGAGCACACGU	10
target 1 C6A,G12C (mixed) RNA 1: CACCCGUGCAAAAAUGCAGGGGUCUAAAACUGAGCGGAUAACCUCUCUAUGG RNA 2: GGGAAUGGAUCCACAUCUACGAAUUCGUACCAUAGAGAGCUUAUCAGCUCACCGAGAUCGGAAGAGCACACGU	14.8

Turning to the following binder.
Form field Kd, entry target 3 C1U,G3U (mixed) RNA 1: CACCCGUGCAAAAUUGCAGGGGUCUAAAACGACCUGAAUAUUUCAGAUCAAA RNA 2: GGGAAUGGAUCCACAUCUACGAAUUCGUUUUUGAUCUGAAAUAUUCAGUUUUGCAGAUCGGAAGAGCACACGU : 45.5
